System: Bovine brain tubulin
Experiment: Inhibition of tubulin polymerization (turbidimetric tubulin assembly)
Format: biochemical
Conditions: 10 μM tubulin, 20 min incubation, 30° C.
Reported metric: pIC50
When answering, recall that pIC50 equals minus log10 of the concentration in mol/L, and write that number alone.

>>> val("COc1cc(C2=CCCCc3c2ccc(OC)c3[N+](=O)[O-])cc(OC)c1OC")
5.60

Task: Determine its reported pIC50: COc1ccc(/C=C\c2cc(OC)c(OC)c(OC)c2)c(O)c1O [CA1, Combretastatin A-1, reference compound]
Result: 5.72

Task: Determine its reported pIC50: COc1ccc2c(c1N)CCCC=C2c1cc(OC)c(OC)c(OC)c1
Result: 5.92

Task: Determine its reported pIC50: COc1ccc2c(c1O)CCCC=C2c1cc(OC)c(OC)c(OC)c1
Result: 5.77

====

Tested on: DU-145 (prostate)
Lab note - cut at 500 nM for GI50: 1 if strictly below, -1 if not.

>>> category("COc1ccc2c(c1F)CCCC=C2c1cc(OC)c(OC)c(OC)c1")
1
>>> category("COc1cc(C2=CCCCc3c2ccc(OC)c3OC)cc(OC)c1OC")
-1
>>> category("COc1cc(C2=CCCCc3ccccc32)cc(OC)c1OC")
-1
>>> category("COc1cc2c(c(OC)c1O)CCCC=C2c1cc(OC)c(OC)c(OC)c1")
-1
>>> category("COc1cc(C2(O)CCCCc3c2ccc(O)c3O)cc(OC)c1OC (stereo not shown)")
-1
>>> category("COc1cc2c(c(O)c1O)CCCC=C2c1cc(OC)c(OC)c(OC)c1")
-1

Task: Consider the molecule COc1cc(C2=CCCCc3c2cc(OC)c(OC)c3O)cc(OC)c1OC . Is its GI50 strictly less than 500 nM?
Result: -1

Task: Consider the molecule COc1ccc2c(c1Cl)CCCC=C2c1cc(OC)c(OC)c(OC)c1 . Is its GI50 strictly less than 500 nM?
Result: 1

Task: Consider the molecule COc1ccc2c(c1)CCCC=C2c1cc(OC)c(OC)c(OC)c1 . Is its GI50 strictly less than 500 nM?
Result: 1

Task: Consider the molecule COc1cc(C2=CCCCc3c2ccc(OC)c3OP(=O)(O)O)cc(OC)c1OC . Is its GI50 strictly less than 500 nM?
Result: 1

====

# GI50 listing for each entry below
Test system: SK-OV-3 (ovarian)
Remember to put the unit after the number in your answer.

The following compounds have reported results that may help.
>>> val("COc1cc(C2=CCCCc3c2ccc(OC)c3OC)cc(OC)c1OC")
"641 nM"
>>> val("COc1cc2c(c(O)c1O)CCCC=C2c1cc(OC)c(OC)c(OC)c1")
"22700 nM"

Task: Determine its reported GI50: COc1cc(C2(O)CCCCc3c2ccc(O)c3O)cc(OC)c1OC (stereo not shown)
Result: 341 nM

Task: Determine its reported GI50: COc1cc(C2=CCCCc3c2cc(OC)c(OC)c3O)cc(OC)c1OC
Result: 18100 nM

====

Entries with their measured GI50, system NCI-H460 (lung):
Give the value in µM but do not write µM after it.

The following compounds have reported results that may help.
>>> val("COc1cc2c(c(OC)c1O)CCCC=C2c1cc(OC)c(OC)c(OC)c1")
18
>>> val("COc1ccc2c(c1F)CCCC=C2c1cc(OC)c(OC)c(OC)c1")
0.004
>>> val("COc1cc(C2(O)CCCCc3c2ccc(O)c3O)cc(OC)c1OC (stereo not shown)")
0.41
>>> val("COc1cc(C2=CCCCc3c2ccc(OC)c3OP(=O)(O)O)cc(OC)c1OC")
0.0266
>>> val("COc1cc(C2=CCCCc3ccccc32)cc(OC)c1OC")
32.5

Task: Determine its reported GI50: COc1cc2c(c(O)c1O)CCCC=C2c1cc(OC)c(OC)c(OC)c1
Result: 20.9

Attribution: patent US20120130129A1
